Values compiled from PubChem BioAssay (NCI).

Tested on: HOP-92 NSCLC
Test: NCI-60 one-dose screen, 48 h
Details: 10 µM unless noted
Protocol: Growth inhibition of the HOP-92 human Non-Small Cell Lung tumor cell line is measured as a screen for anti-cancer activity. Cells are grown in 96 well plates and exposed to the test compound for 48 hours. Compounds are tested at a single concentration, which is 10^-5 M for most compounds. The reported endpoint is percent growth (GI% or GIPRCNT), where numbers from 0 - 100% represent growth inhibition, and numbers from -100% - 0 represent cell death. […]
Compounds without any hit were thinned out: in the full panel of roughly 83,000, 20% have a hit. Calls of active or inactive are those of the source. Rule for the calls: active = growth percent below 10; inactive = the rest.
Choose the fitting class; nothing outside 1.0 = active, 0.0 = inactive is accepted.

INSERT INTO assay_data (molecule, qualitative_label) VALUES
  ('CCSc1ncc(Br)c(Sc2nc(N)nc3nc[nH]c23)n1', 0.0),
  ('FCc1ncc(-c2ccc(C(F)(F)F)cc2)c(NC2CCCCCC2)n1', 1.0),
  ('CC(C)OP(=O)(OC(C)C)c1ncc(-c2ccc(C(F)(F)F)cc2)c(NC2CCCCCC2)n1', 1.0),
  ('[N-]=[N+]=NCc1ncc(-c2ccc(C(F)(F)F)cc2)c(NC2CCCCCC2)n1', 0.0),
  ('O=C(Nc1ccccc1)P(=O)(O)c1ccccc1', 0.0),
  ('Cc1cc2c(cc1C)[n+](Cc1ccc3ccccc3c1)cn2Cc1ccc2ccccc2c1', 1.0),
  ('CCCCCCCCCCCCC1CCCC(C)C1 (configuration not stated)', 0.0),
  ('FC(F)(F)c1cc(-c2nnc3n2N=C(N2CCCC2)CS3)cc(C(F)(F)F)c1', 0.0);

### Prompt For O=C(Nc1nc2ccc(OC(F)(F)F)cc2s1)c1ccc(F)cc1 , what call appears in the results of this test?
### Response 1.0
